Test system: Saccharomyces cerevisiae
assay.text: protein stability index of tFT-peptide fusion (C-terminal peptide) (PSI (0-1 scale)); higher = more stable (slower turnover)
assay.context: genetic background: wild type; temperature: 30 C
So basically, the class depends on measured protein stability index, and the ranges are label 0 (below 0.6), label 1 (0.6 to below 0.7), label 2 (0.7 or more)

Reference set, count: 6
>>> print(df.to_string())
   sequence_string  group_label
0     EGVSNGCAILLF      label 1
1     RFASVLSLPLSV      label 1
2     KELNRRTNSPSE      label 1
3     GFSFFFIFWFFF      label 0
4     VGFIVCFFFSFG      label 0
5     DVAEAGPRPPPT      label 2

Categorize the following entry: AGEGGRKGGGSR
label 1

Categorize the following entry: HAPPPPDASPPL
label 1

Categorize the following entry: PPLPPPPPLLPP
label 1

Categorize the following entry: RAGKEGRVSSSK
label 1

Categorize the following entry: GHFILFWVFCFM
label 0

Categorize the following entry: KERLQLSVNLNI
label 1

Categorize the following entry: PLYRPCPGSRRA
label 2

Categorize the following entry: KVQRINNKKERK
label 1

Categorize the following entry: PPRSRPLPALPS
label 1

Categorize the following entry: LSYPPPPTQPPA
label 2

Categorize the following entry: PLSPPLPRPPPL
label 1

Categorize the following entry: AVFYGRWRGVWE
label 2

---

Examples of sequences with documented protein stability index follow.
Tested on: Saccharomyces cerevisiae
assay.text: protein stability index of tFT-peptide fusion in wild type (PSI (0-1 scale)); higher = more stable (slower turnover)
assay.context: genetic background: wild type

   sequence_string            quantity_kind  meas_value
0     GLYMCSVGEWFR  protein stability index       0.663
1     FSMYWTFRYWVN  protein stability index      0.0583

Tell me the measured protein stability index of LKILRQKMNHQK , please.
0.666

Tell me the measured protein stability index of KKHKKGQKFKIN , please.
0.158

Tell me the measured protein stability index of RVTRFDAIYFRI , please.
0.287

Tell me the measured protein stability index of WVTRLDAIYFRI , please.
0.161

Tell me the measured protein stability index of LVVYLSCAACIN , please.
0.0321

Tell me the measured protein stability index of RLIQPLPVQFGN , please.
0.63

Tell me the measured protein stability index of LCVYLSCVACIN , please.
0.0138

Tell me the measured protein stability index of LMVYLSCVACIN , please.
0.0204

Tell me the measured protein stability index of KKHKKEQKQKIN , please.
0.0895

Tell me the measured protein stability index of CLVNLPILLFFR , please.
0.0622

Tell me the measured protein stability index of LVVYLSCVSCIN , please.
0.0143

Tell me the measured protein stability index of PDKRNHLIKLLNP , please.
0.663

Tell me the measured protein stability index of VRGAVGGWRVVG , please.
0.259

Tell me the measured protein stability index of VHGAVGGWRLVG , please.
0.136

Tell me the measured protein stability index of RLIQPLPVQFLNE , please.
0.659

Tell me the measured protein stability index of VRGAVGMWRLVG , please.
0.169

Tell me the measured protein stability index of CTSCGYKFRINN , please.
0.233
